System: MALME-3M melanoma
Experiment: NCI-60 one-dose screen, 48 h
Conditions: 10 µM unless noted
About 83,000 compounds went through this panel and 20% of them were active in at least one assay; those are over-represented in the sample as a whole. The source made the active and inactive calls. Rule for the calls: active = growth percent below 10; inactive = the rest.
Please state which outcome applies, choosing from active, inactive

// query Tell me the recorded outcome of this test for Cc1ccc2cc3c(N)c4c(C)ccc(C)c4nc3nc2c1 .
// result active

// query Tell me the recorded outcome of this test for c1ccc(-c2ccc(-c3nc4ccccc4[nH]3)cc2)cc1 .
// result inactive

// query Tell me the recorded outcome of this test for O=C(/C=C/c1ccc(C(F)(F)F)cc1)c1ccc(Nc2nc(NCCO)nc(Nc3ccc(Cl)cc3)n2)cc1 .
// result inactive

// query Tell me the recorded outcome of this test for CCN1C(=O)N(CC)C2C1NN=c1s/c(=C3\C(=O)N(CC(C)(C)C)c4ccccc43)c(=O)n12 (stereo not given) .
// result inactive

// query Tell me the recorded outcome of this test for Cc1ccc(C)c(-c2csc(Nc3ccc(C)c(C)c3)n2)c1 .
// result active

// query Tell me the recorded outcome of this test for CC(C)[C@H](NC(=O)Cn1cc(C(=O)O)nn1)C(=O)O .
// result inactive

// query Tell me the recorded outcome of this test for O=C1c2cc(Br)ccc2Oc2cc([N+](=O)[O-])ccc2N1c1ccc(I)cc1F .
// result inactive

// query Tell me the recorded outcome of this test for CSc1nc2c(c(=O)[nH]1)N=C1c3ccccc3C(=O)C1C(c1ccccc1)N2 (stereo not given) .
// result inactive

// query Tell me the recorded outcome of this test for Cc1ccc2c(n1)C(=O)C(Oc1ccc(Br)cc1)=CC2=O .
// result inactive

// query Tell me the recorded outcome of this test for Nc1n[nH]c2ccc([C@@H]3Nc4ccc5[nH]ncc5c4[C@H]4[C@H]5CCC(C5)[C@H]43)cc12 .
// result inactive

###

Tested on: K-562 leukemia
Test: NCI-60 one-dose screen, 48 h (100 = growth as untreated, 0 = no growth, -100 = all killed)
Conditions: 10 µM unless noted
About 83,000 compounds went through this panel and 20% of them were active in at least one assay; those are over-represented in the sample as a whole.
ENDPOINT_NAME: growth (%)
Please state the figure in %; there is no need to write the unit.

// query # return recorded growth for input COc1ccc(CSc2nnc(SCC(=O)Nc3ccc(Cl)cc3)s2)cc1
// result 15.6

// query # return recorded growth for input Cc1c(-c2noc(-c3ccc([N+](=O)[O-])cc3)n2)no[n+]1[O-]
// result 93.7

// query # return recorded growth for input O=C(NC1CCN(Cc2ccccc2)CC1)c1cc(C(=O)NC2CCN(Cc3ccccc3)CC2)cc(C(=O)NC2CCN(Cc3ccccc3)CC2)c1
// result 64.6

// query # return recorded growth for input O=C1c2ccc3c4c(ccc(c24)C(=O)N1CCCCO)C(=O)N(CCCCO)C3=O
// result 4.34

// query # return recorded growth for input Cc1ccc2c(n1)C(=O)C(Oc1ccc(Br)cc1)=CC2=O
// result 77

// query # return recorded growth for input NCCOc1ncccc1/C=C1\c2ccccc2-c2ccc(F)cc21
// result 3.28

###

Test system: MDA-MB-231 breast
Experiment: NCI-60 one-dose screen, 48 h
Settings: 10 µM unless noted
The panel holds about 83,000 compounds, 20% with a hit somewhere; the sample as a whole holds those more often. Activity calls are given as the source filed them. How the source made its calls: active means growth percent below 10; inactive means the rest.
Please state which outcome applies, choosing from active, inactive

// query Tell me the recorded outcome of this test for O=C(Nc1nc2c(s1)CCc1c-2c(Br)n(Cc2ccccc2)c1Br)c1ccccc1 .
// result inactive

// query Tell me the recorded outcome of this test for O=C(/C=C/c1ccccn1)c1ccc(OCc2nnc(-c3ccc(Cl)cc3)o2)cc1 .
// result inactive

// query Tell me the recorded outcome of this test for NC1C(N)C(N)C1N (centres undefined) .
// result inactive

// query Tell me the recorded outcome of this test for COc1ccc(Cn2c(Br)c3c(c2-c2cc(OC)c(OC)c(OC)c2)CCc2sc(NC(=O)c4ccc(OC)cc4)nc2-3)cc1 .
// result inactive

// query Tell me the recorded outcome of this test for CC1=C(C(=O)OCC2CCN(C(=O)OC(C)(C)C)CC2)[C@H](c2cccc(Br)c2)C2=C(CC(C)(C)CC2=O)N1 .
// result inactive

// query Tell me the recorded outcome of this test for O=C(Nc1ncc(Cc2cccc(C(F)(F)F)c2)s1)C1COc2ccccc2O1 (centres undefined) .
// result inactive

// query Tell me the recorded outcome of this test for O=C(c1ccccc1)N(C(=S)NCCc1ccc(Cl)cc1)c1ccc(Cl)cc1 .
// result inactive

// query Tell me the recorded outcome of this test for CCOc1cccc(/C=N/NC(=O)C(=O)Nc2cccc(C(F)(F)F)c2)c1O .
// result inactive

// query Tell me the recorded outcome of this test for COc1ccc(C2NCCc3c2[nH]c2ccccc32)cc1CN1CCN(c2ccc(F)cc2)CC1 (centres undefined) .
// result active
